These measurements were taken from the RNAGym collection of RNA variant scans (doi:10.1126/science.aae0568).

Measured yeast fitness accompanies every entry in the list below.
B1: tRNA (parent)
chain: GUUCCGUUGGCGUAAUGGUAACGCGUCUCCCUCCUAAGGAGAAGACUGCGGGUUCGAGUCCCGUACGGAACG

Variants of: B1
Experiment: yeast fitness relative to wild type (ratio to wild type); higher = fitter; tRNA-Arg(CCU), competitive growth, 37 C, YPD
Fewer inactive variants are shown than the library holds.

Solved cases below.
Note down yeast fitness recorded for GUUUCGUUGGCGUAAUGGUAACGCGUCUCCCUCCUAAGGAGUAGACUGCGGGUUCGAGUCGCGUACGGAACG [C4U A42U C61G]
0.593

Note down yeast fitness recorded for GUUCCGUUGGCGUAAUGGUAACGCGUCUGCCACCUAAGGAGAAGACUGCGGGUUCGAGUCCAGUACGGAACG [C29G U32A C62A]
0.608

Note down yeast fitness recorded for GGUCCGUUGGCGUAAUGGUAACGCGUCUCCCUCCUAAGGAGAAGACUACGGGUUCGAAUCCCGUACGGAACG [U2G G48A G58A]
0.614

Note down yeast fitness recorded for GUUCCGUUGGCGUAAUAGUAACGCGUCUCCCUCCUAAGGAGAAGACUGCGGGUUCGAGUCUCGUAUGGAACG [G17A C61U C66U]
0.599

Note down yeast fitness recorded for GUUCAGUUGGCGUAAUGGUAACGCGUCUCCUUCCUAAGGAGAAGACUGCGGGUUCGAGUCCCGUACGGAGCG [C5A C31U A70G]
0.614

Note down yeast fitness recorded for GUUCCGUUGGCGUAAUCGUAACGCGUCUCCCUCCUAAGGAGAAGACUGCGGGUUCGAGUCUUGUAAGGAACG [G17C C61U C62U C66A]
0.593

Note down yeast fitness recorded for GUUCCGUUGGCGUAAUGGUAACGCGUCUCCUUCCUAAGGAGAAGAGUGCGGGUUCGAGUCCCAUACGGAACG [C31U C46G G63A]
0.606

Note down yeast fitness recorded for GUUCAGUUGGCGUAAUGGUAACGCGUCUCCCUCCGAAGGAGCAGACUGCGGGUUCGAGUCCCGUACGGCACG [C5A U35G A42C A69C]
0.588

# evaluate next
Note down yeast fitness recorded for GUUCCGUUGGCGUAGUGGUAACGCGUCUCCCUCCAAAGGAGAAGACUGCGGGUUCGAGUCCCGUACGGAACG [A15G U35A]
0.602
